- Experimental Target: CAMK2B (Homo sapiens, UniProt Q13554)
- Construct: purchased in-house DSF panel (SGC Frankfurt)
- Sequence (Q13554 11-303): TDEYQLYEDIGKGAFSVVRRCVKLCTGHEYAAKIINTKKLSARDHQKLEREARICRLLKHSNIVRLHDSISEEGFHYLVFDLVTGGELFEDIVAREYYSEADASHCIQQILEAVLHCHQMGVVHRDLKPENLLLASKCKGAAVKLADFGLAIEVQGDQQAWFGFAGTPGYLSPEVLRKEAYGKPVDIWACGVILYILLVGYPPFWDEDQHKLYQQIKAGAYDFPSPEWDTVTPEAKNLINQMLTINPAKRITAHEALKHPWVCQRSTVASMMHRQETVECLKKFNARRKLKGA
- Method: DSF
- Type: binding
ΔTm CAMK2B listing for selected compounds.
Value expressed in °C; do not type the unit.

>>> numeric_result("COC(=O)c1cc(Nc2ccnc(NCc3ccc(NC(=O)OC(C)(C)C)cc3)n2)[nH]n1 [21i]")
0.6

For the compound CC(C)OC(=O)c1cc(Nc2ccnc(NCc3ccc(NC(=O)OC(C)(C)C)cc3)n2)n[nH]1 [42d] , give its reported ΔTm CAMK2B.
-1.2

For the compound CC(C)(C)OC(=O)Nc1ccc(CNc2nccc(Nc3cc(C(=O)OC(C)(C)C)[nH]n3)n2)cc1 [43d] , give its reported ΔTm CAMK2B.
-0.5

For the compound N#CCc1ccc(Nc2nccc(Nc3cc(C4CC4)[nH]n3)n2)cc1 [compound 1, reference compound] , give its reported ΔTm CAMK2B.
4.4

For the compound COC(=O)c1cc(Nc2ccnc(NCCOCCNC(=O)OC(C)(C)C)n2)[nH]n1 [21d] , give its reported ΔTm CAMK2B.
0.2

* * *

- Experimental Target: CDK6/Cyclin D3 (Homo sapiens, UniProt Q00534)
- Construct: Full-length kinases were obtained as plasmids cloned in frame with a terminal NanoLuc-fusion; CS1810C87 (CCND3)
- Sequence (Q00534 whole entry, the tested form may be a part): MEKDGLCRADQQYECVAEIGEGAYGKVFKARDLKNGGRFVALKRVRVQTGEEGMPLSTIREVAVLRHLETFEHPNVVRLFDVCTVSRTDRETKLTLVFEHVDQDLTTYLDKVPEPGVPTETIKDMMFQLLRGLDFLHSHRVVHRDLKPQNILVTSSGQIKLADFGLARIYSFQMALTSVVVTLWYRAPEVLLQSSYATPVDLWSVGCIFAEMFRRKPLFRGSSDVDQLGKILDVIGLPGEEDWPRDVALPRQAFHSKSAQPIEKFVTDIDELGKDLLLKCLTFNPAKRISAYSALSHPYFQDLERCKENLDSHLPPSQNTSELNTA
- Sequence (P30281 whole entry partner, the tested form may be a part): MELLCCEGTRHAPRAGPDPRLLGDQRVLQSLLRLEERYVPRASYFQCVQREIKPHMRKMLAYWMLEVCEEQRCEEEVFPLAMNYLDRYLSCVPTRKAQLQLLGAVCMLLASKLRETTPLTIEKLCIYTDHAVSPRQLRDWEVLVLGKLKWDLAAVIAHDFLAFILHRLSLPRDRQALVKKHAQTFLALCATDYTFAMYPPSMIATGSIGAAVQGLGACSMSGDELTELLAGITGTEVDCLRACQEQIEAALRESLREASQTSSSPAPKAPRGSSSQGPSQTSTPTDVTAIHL
- Method: NanoBRET
- Stated Conditions: read-out: NanoBRET EC50 ± SEM CDK6/Cyclin D3
Recorded Metric: EC50 (nM)
Value expressed in nM; do not type the unit.

The examples below pair each entry with its known result.
>>> numeric_result("CC(C)OC(=O)c1cc(Nc2ccnc(NCc3ccc(NC(=O)OC(C)(C)C)cc3)n2)n[nH]1 [42d]")
2080
>>> numeric_result("COC(=O)c1cc(Nc2ccnc(NCc3ccc(NC(=O)OC(C)(C)C)cc3)n2)[nH]n1 [21i]")
6550

For the compound CC(C)(C)OC(=O)Nc1ccc(CNc2nccc(Nc3cc(C(=O)OC(C)(C)C)[nH]n3)n2)cc1 [43d] , give its reported EC50.
2910

For the compound N#CCc1ccc(Nc2nccc(Nc3cc(C4CC4)[nH]n3)n2)cc1 [compound 1, reference compound] , give its reported EC50.
45.3

* * *

- Experimental Target: CDK14/Cyclin Y (Homo sapiens, UniProt O94921)
- Construct: Full-length kinases were obtained as plasmids cloned in frame with a terminal NanoLuc-fusion; CS1810C178 (CCNY); host or cells: HEK293T
- Sequence (O94921 whole entry, the tested form may be a part): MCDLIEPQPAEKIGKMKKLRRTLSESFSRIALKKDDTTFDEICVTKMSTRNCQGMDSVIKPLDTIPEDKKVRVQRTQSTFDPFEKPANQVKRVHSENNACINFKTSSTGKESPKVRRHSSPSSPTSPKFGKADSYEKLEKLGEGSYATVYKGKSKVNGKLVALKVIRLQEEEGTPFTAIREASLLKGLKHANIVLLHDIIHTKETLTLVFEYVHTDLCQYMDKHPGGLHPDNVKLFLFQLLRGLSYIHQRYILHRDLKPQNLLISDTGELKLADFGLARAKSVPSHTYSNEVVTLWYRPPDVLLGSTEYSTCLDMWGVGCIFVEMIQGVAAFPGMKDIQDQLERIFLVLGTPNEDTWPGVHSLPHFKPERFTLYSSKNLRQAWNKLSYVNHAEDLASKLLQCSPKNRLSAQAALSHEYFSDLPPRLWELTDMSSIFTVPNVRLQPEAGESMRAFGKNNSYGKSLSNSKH
- Sequence (Q8ND76 2-341 partner limits assumed): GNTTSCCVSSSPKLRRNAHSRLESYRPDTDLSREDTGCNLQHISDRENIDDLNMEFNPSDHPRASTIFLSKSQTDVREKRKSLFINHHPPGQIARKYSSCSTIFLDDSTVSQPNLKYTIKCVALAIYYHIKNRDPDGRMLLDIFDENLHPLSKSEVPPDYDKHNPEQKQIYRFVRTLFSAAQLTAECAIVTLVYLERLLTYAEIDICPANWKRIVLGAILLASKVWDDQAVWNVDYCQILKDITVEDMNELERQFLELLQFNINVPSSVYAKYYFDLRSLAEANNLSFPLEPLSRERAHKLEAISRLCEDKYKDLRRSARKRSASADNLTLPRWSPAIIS
- Method: NanoBRET
- Type: cell-based
- Stated Conditions: read-out: NanoBRET EC50 ± SEM CDK14/Cyclin Y
Recorded Metric: EC50 (nM)
Value expressed in nM; do not type the unit.

>>> numeric_result("CC(C)OC(=O)c1cc(Nc2ccnc(NCc3ccc(NC(=O)OC(C)(C)C)cc3)n2)n[nH]1 [42d]")
88.2
>>> numeric_result("COC(=O)c1cc(Nc2ccnc(NCc3ccc(NC(=O)OC(C)(C)C)cc3)n2)[nH]n1 [21i]")
1370
>>> numeric_result("CC(C)(C)OC(=O)Nc1ccc(CNc2nccc(Nc3cc(C(=O)OC(C)(C)C)[nH]n3)n2)cc1 [43d]")
72.1

We next turn to a different compound, shown below.
For the compound N#CCc1ccc(Nc2nccc(Nc3cc(C4CC4)[nH]n3)n2)cc1 [compound 1, reference compound] , give its reported EC50.
33.7
